System: human T-lymphocytic MT-4 cells
measurement_description: in vitro
particulars: MT-4 cells, 5 days, MTT; mean ± S.E.M, n = 3
# label = Y if EmaxC, maximum cytotoxic effect % < 40% else N

Is EmaxC, maximum cytotoxic effect % of `CO[C@@]12C[C@]3(C)CCC[C@H](C)[C@@]3(O)CC1=C(C)C(=O)O2` strictly below 40%? N

Is EmaxC, maximum cytotoxic effect % of `CC1=C2C[C@]3(O)[C@@H](C)CCC[C@@]3(C)C[C@@H]2OC1=O` strictly below 40%? N

Is EmaxC, maximum cytotoxic effect % of `CC1=C2C[C@]3(O)[C@@H](C)CCC[C@@]3(C)C[C@@]2(O)OC1=O` strictly below 40%? N

Is EmaxC, maximum cytotoxic effect % of `C[C@H](Cn1cnc2c(N)ncnc21)OCP(=O)(O)O` strictly below 40%? Y

Is EmaxC, maximum cytotoxic effect % of Nc1nc(NC2CC2)c2ncn([C@H]3C=C[C@@H](CO)C3)c2n1 [ABC, abacavir, reference compound] strictly below 40%? Y
